Every entry's value here was drawn from the supplement of paper PMC11061612.

Test system: PA-1 (Ovarian Carcinoma)
experimental-details: combination Emax (second highest fraction inhibited in the dose matrix, 72 h); higher = more inhibition; extreme values may be limits of the assay
Classification field: yes = combination Emax at or over 0.9; no = combination Emax under 0.9.

Check out these entries, answers already filled in.
compound | class-name
Cc1c2c(nn1C)CSCc1cc(n(C)n1)CSc1cc(c3ccccc3c1)OCCCc1c(C(=O)O)n(C)c3c-2c(Cl)ccc13 [AZD5991] + C1CN(CCC1(C(=O)N[C@@H](CCO)C2=CC=C(C=C2)Cl)N)C3=NC=NC4=C3C=CN4 [Capivasertib] (first compound max 1 µM, 7x7, partner max 3 µM) | yes
CCc1c2c(nc3ccc(O)cc13)-c1cc3c(c(=O)n1C2)COC(=O)[C@]3(O)CC [SN-38] + O=C(c1cc(Cc2n[nH]c(=O)c3ccccc23)ccc1F)N1CCN(C(=O)C2CC2)CC1 [Olaparib] (first compound max 0.3 µM, 7x7, partner max 10 µM) | no

Please indicate if the recorded combination Emax for CN(CCO)CC[C@H](CSc1ccccc1)Nc1ccc(S(=O)(=O)NC(=O)c2ccc(N3CCC([C@@H](O)c4ccccc4-c4ccc(Cl)cc4)CC3)cc2)cc1S(=O)(=O)C(F)(F)F [AZD4320] + Cc1cc2ncnn2cc1Nc1ncc2c(n1)n(C1CCOCC1)c(=O)n2C [AZD7648] (first compound max 1 µM, 7x7, partner max 10 µM) meets or exceeds 0.9.
no

Consider next the compound CC1(C)CCC(CN2CCN(c3ccc(C(=O)NS(=O)(=O)c4ccc(NCC5CCOCC5)c([N+](=O)[O-])c4)c(Oc4cnc5[nH]ccc5c4)c3)CC2)=C(c2ccc(Cl)cc2)C1 [Venetoclax] + C[C@@H](Nc1cc(F)cc(F)c1)c1cc(C(=O)N(C)C)cc2c(=O)cc(N3CCOCC3)oc12 [AZD8186] (first compound max 1 µM, 7x7, partner max 3 µM) in the same way.
no

Consider next the compound CN(CCO)CC[C@H](CSc1ccccc1)Nc1ccc(S(=O)(=O)NC(=O)c2ccc(N3CCC([C@@H](O)c4ccccc4-c4ccc(Cl)cc4)CC3)cc2)cc1S(=O)(=O)C(F)(F)F [AZD4320] + C=CCn1c(=O)c2cnc(Nc3ccc(N4CCN(C)CC4)cc3)nc2n1-c1cccc(C(C)(C)O)n1 [AZD1775] (first compound max 1 µM, partner max 1 µM) in the same way.
yes

Consider next the compound Cn1cnc2c(F)c(Nc3ccc(Br)cc3Cl)c(C(=O)NOCCO)cc21 [Selumetinib] + CCN(CCO)CCCOc1ccc2c(Nc3cc(CC(=O)Nc4cccc(F)c4)[nH]n3)ncnc2c1 [AZD2811] (first compound max 10 µM, 7x7, partner max 1 µM) in the same way.
no

Consider next the compound CC1(C)CCC(CN2CCN(c3ccc(C(=O)NS(=O)(=O)c4ccc(NCC5CCOCC5)c([N+](=O)[O-])c4)c(Oc4cnc5[nH]ccc5c4)c3)CC2)=C(c2ccc(Cl)cc2)C1 [Venetoclax] + COc1cc(Nc2ncc3c(n2)-c2ccc(Cl)cc2C(c2c(F)cccc2OC)=NC3)ccc1C(=O)O [Alisertib] (first compound max 1 µM, 7x7, partner max 10 µM) in the same way.
yes

Consider next the compound CC(=O)c1c(C)c2cnc(Nc3ccc(N4CCNCC4)cn3)nc2n(C2CCCC2)c1=O [Palbociclib] + Cc1c2c(nn1C)CSCc1cc(n(C)n1)CSc1cc(c3ccccc3c1)OCCCc1c(C(=O)O)n(C)c3c-2c(Cl)ccc13 [AZD5991] (first compound max 10 µM, 7x7, partner max 1 µM) in the same way.
no

Consider next the compound Cc1c2c(nn1C)CSCc1cc(n(C)n1)CSc1cc(c3ccccc3c1)OCCCc1c(C(=O)O)n(C)c3c-2c(Cl)ccc13 [AZD5991] + C[C@@H](Nc1cc(F)cc(F)c1)c1cc(C(=O)N(C)C)cc2c(=O)cc(N3CCOCC3)oc12 [AZD8186] (first compound max 1 µM, 7x7, partner max 3 µM) in the same way.
yes
